Molecular target: T1, human TNFR1 on MRC-5 cells (human, UniProt P19438 30-455)
T1 sequence (looked up): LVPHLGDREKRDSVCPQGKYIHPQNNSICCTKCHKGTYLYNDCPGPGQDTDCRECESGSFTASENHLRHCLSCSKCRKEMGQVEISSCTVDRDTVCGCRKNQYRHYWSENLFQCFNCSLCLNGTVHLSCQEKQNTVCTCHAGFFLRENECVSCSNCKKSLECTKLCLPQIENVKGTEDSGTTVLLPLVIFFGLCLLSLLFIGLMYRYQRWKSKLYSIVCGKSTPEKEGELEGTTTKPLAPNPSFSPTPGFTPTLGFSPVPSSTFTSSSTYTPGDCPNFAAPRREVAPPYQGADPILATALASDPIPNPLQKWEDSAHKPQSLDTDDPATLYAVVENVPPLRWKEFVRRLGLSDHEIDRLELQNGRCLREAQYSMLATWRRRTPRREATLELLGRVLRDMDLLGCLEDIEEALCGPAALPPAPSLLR
Assay: cell-based or functional assay
OBSERVED PROPERTY: MRC-5 EC50 (µM)

Examples from the recorded data:
1. DOM1h-574-17 (other) VH: EVQLLESGGGLVQPGGSLRLSCAASGFTFVKYSMGWVRQAPGKGPEWVSQISNTGDHTYYADSVKGRFTISRDNSKNTLYLQMNSLRAEDTAVYYCAIYTGRWEPFDYWGQGTLVTVSS    0.02
2. DOM1h-574-16 (other) VH: EVQLLESGGGLVQPGGSLRLSCAASGFTFVKYSMGWVRQAPGKGPEWVSQISNTGDRTYYADSVKGRFTISRDNSKNTLYLQMNSLRAEDTAVYYCAIYTGRWEPFDYWGQGTLVTVSS    0.008
3. DOM1h-574-12 (other) VH: EVQLLESGGGLVQPGGSLRLSCAASGFTFVKYSMGWVRQAPGKGLEWVSQISNTGDHTYYADSVKGRFTISRDNSKNTLYLQMNSLRAEDTAVYYCAKYTGRWEPFDYWGQGTLVTVSS    0.13

(1) DOM1h-574-11 (other) VH: EVQLLESGGGLVQPGGSLRLSCAASGFTFVKYSMGWVRQAPGKGLEWVSQISNTGGHTYYADSVKGRFTISRDNSKNTLYLQMNSLRAEDTAVYYCAKYTGRWEPFDHWGQGTLVTVSS
(2) DOM1h-574-19 (other) VH: EVQLLESGGGLVQPGGSLRLSCAASGFTFGKYSMGWVRQAPGKDLEWVSQISNTGDHTYYADSVKGRFTISRDNSKNTLYLQMNSLRAEDTAVYYCAIYTGRWEPFDYWGQGTLVTVSS
(3) DOM1h-574-8 (other) VH: EVQLLESGGGLVQPGGSLRLSCAASGFTFVKYSMGWVRQAPGKGPEWVSQISNTGGHTYYADSVKGRFTISRDNSKNTLYLQMNSLRAEDTAVYYCAIYTGRWEPFDYWGQGTLVTVSS
(4) DOM1h-574-18 (other) VH: EVQLLESGGGLVQPGGSLRLSCAASGFTFGKYSMGWVRQAPGKDLEWVSQISNTGDRTYYADSVKGRFTISRDNSKNTLYLQMNSLRAEDTAVYYCAIYTGRWEPFDYWGQGTLVTVSS
Asked: List by increasing MRC-5 EC50. Sort and list the labels as requested.
Given back: 3, 4, 2, 1
(3: 0.01 µM, 4: 0.017 µM, 2: 0.14 µM, 1: 0.8 µM)
